Target: GST-Co-NF-kB (Capsaspora owczarzaki, UniProt F1ARL5 200-546)
Sequence: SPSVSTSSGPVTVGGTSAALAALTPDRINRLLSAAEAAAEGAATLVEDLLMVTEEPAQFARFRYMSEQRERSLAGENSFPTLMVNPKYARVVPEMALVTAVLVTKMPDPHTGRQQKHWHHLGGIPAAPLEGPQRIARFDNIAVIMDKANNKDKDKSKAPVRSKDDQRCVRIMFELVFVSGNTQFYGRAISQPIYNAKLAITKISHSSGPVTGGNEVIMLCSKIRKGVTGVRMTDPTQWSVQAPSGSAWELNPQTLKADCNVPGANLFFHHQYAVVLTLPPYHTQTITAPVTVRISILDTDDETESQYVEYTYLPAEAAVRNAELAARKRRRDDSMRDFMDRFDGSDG
Assay: protein-binding microarray (PBM); PBM: ~300 nM protein, 6 mM HEPES pH 7.8, 80 mM KCl, 0.5 mM EDTA, 0.5 mM EGTA, 6% glycerol, 35 ng/ul poly-dIdC, 1% milk, 1 h, room temperature; high values mean tight binding
Conditions: dsDNA, one strand shown
Labelling: binding signal reported below 4 z-score becomes YES; at or above becomes NO.

Q: I wonder whether "CCGATTAACATCACTCCCCCCCCTGATGTTAATCGGGTCTTGATTCGCTTGACGCTGCTG" has binding signal below 4 z-score. Can you tell?
Ans: NO

Q: Consider "CCGATTAACATCAAGGAAACCCCTGATGTTAATCGGGTCTTGATTCGCTTGACGCTGCTG" . Does its binding signal lie strictly below 4 z-score?
Ans: YES

Q: Could you please tell me whether binding signal recorded for "CCGATTAACATCAGAACTTTCCCTGATGTTAATCGGGTCTTGATTCGCTTGACGCTGCTG" is less than 4 z-score?
Ans: YES

Q: Is binding signal strictly under 4 z-score for the entry "CCGATTAACATCAATATACCCCCTGATGTTAATCGGGTCTTGATTCGCTTGACGCTGCTG" ?
Ans: NO

Q: Is it true that binding signal reported for "CCGATTAACATCAGGAGTCCCCCTGATGTTAATCGGGTCTTGATTCGCTTGACGCTGCTG" is less than 4 z-score?
Ans: NO

Q: Here's an entry: "CCGATTAACATCACGGGTATTCCTGATGTTAATCGGGTCTTGATTCGCTTGACGCTGCTG" . Is its binding signal below 4 z-score?
Ans: YES

Q: Is binding signal strictly under 4 z-score for the entry "CCGATTAACATCACGGGGGATTATGATGTTAATCGGGTCTTGATTCGCTTGACGCTGCTG" ?
Ans: NO

Q: Lab log: compare recorded binding signal with 4 z-score; is it strictly lower for "CCGATTAACATCAGGGTAATACCTGATGTTAATCGGGTCTTGATTCGCTTGACGCTGCTG" ?
Ans: YES

Q: Hi there! Is binding signal for "CCGATTAACATCACACACCCCCCTGATGTTAATCGGGTCTTGATTCGCTTGACGCTGCTG" below 4 z-score, do you know?
Ans: YES

###

Exercise: state measured binding signal for each of the sequences provided.
Target: GST-Nv-NF-kB (Ser allele) (Nematostella vectensis, UniProt A7UNT2 2-411)
Sequence: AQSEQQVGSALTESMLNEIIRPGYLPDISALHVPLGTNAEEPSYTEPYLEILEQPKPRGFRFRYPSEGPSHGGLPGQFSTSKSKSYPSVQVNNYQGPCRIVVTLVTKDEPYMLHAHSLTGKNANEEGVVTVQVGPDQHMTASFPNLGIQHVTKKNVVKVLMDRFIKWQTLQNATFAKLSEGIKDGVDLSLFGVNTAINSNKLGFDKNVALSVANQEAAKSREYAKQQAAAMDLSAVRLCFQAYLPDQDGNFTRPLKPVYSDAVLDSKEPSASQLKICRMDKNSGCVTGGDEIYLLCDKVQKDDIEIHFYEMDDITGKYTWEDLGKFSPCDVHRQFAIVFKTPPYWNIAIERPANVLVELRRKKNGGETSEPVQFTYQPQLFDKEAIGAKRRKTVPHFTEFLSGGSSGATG
Test: protein-binding microarray (PBM); PBM: ~300 nM protein, 6 mM HEPES pH 7.8, 80 mM KCl, 0.5 mM EDTA, 0.5 mM EGTA, 6% glycerol, 35 ng/ul poly-dIdC, 1% milk, 1 h, room temperature; Ap Aiptasia and Nv Nematostella (sea anemones) / Co Capsaspora / Aq Amphimedon (sponge) / Dm Drosophila / Hu human; RHD is the Rel homology domain; high values mean tight binding
Conditions: dsDNA, one strand shown
# output: numeric value plus its unit

Q: Given the sequence "CCGATTAACATCAGGGAAAGATATGATGTTAATCGGGTCTTGATTCGCTTGACGCTGCTG" , what is its reported binding signal?
Ans: 4.52 z-score

Q: Returns the measured binding signal for the input sequence. Input: "CCGATTAACATCAGGGATATCCCTGATGTTAATCGGGTCTTGATTCGCTTGACGCTGCTG"
Ans: 4.4 z-score

Q: For the sequence "CCGATTAACATCAGGGGGGAGTATGATGTTAATCGGGTCTTGATTCGCTTGACGCTGCTG" , what binding signal is on record?
Ans: 5.11 z-score

Q: Fill in the blank: the reported binding signal of "CCGATTAACATCAGATTTTCCCCTGATGTTAATCGGGTCTTGATTCGCTTGACGCTGCTG" is ____.
Ans: 11 z-score

Q: Which binding signal value is on record for "CCGATTAACATCAAATTCCCACATGATGTTAATCGGGTCTTGATTCGCTTGACGCTGCTG" ?
Ans: 3.94 z-score

Q: What value of binding signal has been reported for the following sequence? "CCGATTAACATCACACTGTTCAGTGATGTTAATCGGGTCTTGATTCGCTTGACGCTGCTG"
Ans: 1.06 z-score

Q: Requested field: binding signal. Item: "CCGATTAACATCAGGAAATAACCTGATGTTAATCGGGTCTTGATTCGCTTGACGCTGCTG"
Ans: 3.75 z-score

Q: Consider the sequence "CCGATTAACATCAGATTCCCCCATGATGTTAATCGGGTCTTGATTCGCTTGACGCTGCTG" and give its measured binding signal.
Ans: 8.63 z-score

Q: Item "CCGATTAACATCAGGGAAGGACCTGATGTTAATCGGGTCTTGATTCGCTTGACGCTGCTG" has what recorded binding signal?
Ans: 1.09 z-score

Q: Given "CCGATTAACATCAGAAAATACCCTGATGTTAATCGGGTCTTGATTCGCTTGACGCTGCTG" , state its recorded binding signal.
Ans: 7.72 z-score

Q: Need binding signal, item "CCGATTAACATCACACCCCCCCGTGATGTTAATCGGGTCTTGATTCGCTTGACGCTGCTG"
Ans: 3.09 z-score

Q: Given the sequence "CCGATTAACATCACATTTCCCCCTGATGTTAATCGGGTCTTGATTCGCTTGACGCTGCTG" , what is its reported binding signal?
Ans: 10.2 z-score

Q: Recorded binding signal of "CCGATTAACATCAGGGGAACAAATGATGTTAATCGGGTCTTGATTCGCTTGACGCTGCTG" , please.
Ans: 5.44 z-score

Q: Consider the sequence shown here: "CCGATTAACATCAGGGGTTTTTATGATGTTAATCGGGTCTTGATTCGCTTGACGCTGCTG" What is its recorded binding signal?
Ans: 7.26 z-score

Q: Item under review: "CCGATTAACATCAGACTTTCCCCTGATGTTAATCGGGTCTTGATTCGCTTGACGCTGCTG" . Reported binding signal?
Ans: 8.83 z-score

Q: Could you tell me which binding signal is on file for "CCGATTAACATCAAAAGAGTCCCTGATGTTAATCGGGTCTTGATTCGCTTGACGCTGCTG" ?
Ans: 5.71 z-score

Q: # get_value(readout='binding signal', item= "CCGATTAACATCACCCAATTCCCTGATGTTAATCGGGTCTTGATTCGCTTGACGCTGCTG" )
Ans: 4.42 z-score

Q: What binding signal value was documented for this sequence, "CCGATTAACATCAATTCTCCCCCTGATGTTAATCGGGTCTTGATTCGCTTGACGCTGCTG" ?
Ans: 8.64 z-score

Q: I have this sequence here, "CCGATTAACATCACGGGGATTCCTGATGTTAATCGGGTCTTGATTCGCTTGACGCTGCTG" , and I need its recorded binding signal.
Ans: 8.87 z-score

Q: Item under review: "CCGATTAACATCAGGACTTTCCCTGATGTTAATCGGGTCTTGATTCGCTTGACGCTGCTG" . Reported binding signal?
Ans: 6.68 z-score

Q: Dear colleague, I am looking for the recorded binding signal of the following sequence: "CCGATTAACATCAATCTCCCCCCTGATGTTAATCGGGTCTTGATTCGCTTGACGCTGCTG"
Ans: 7.29 z-score

Q: Query (sequence): "CCGATTAACATCAAACTTCCCCATGATGTTAATCGGGTCTTGATTCGCTTGACGCTGCTG" ; field requested: binding signal
Ans: 7.9 z-score

Q: binding signal for "CCGATTAACATCAGGGGAACTCATGATGTTAATCGGGTCTTGATTCGCTTGACGCTGCTG" ?
Ans: 7.59 z-score

Q: binding signal lookup needed for "CCGATTAACATCAAGAAGTTCCCTGATGTTAATCGGGTCTTGATTCGCTTGACGCTGCTG" , thanks.
Ans: 2.6 z-score

Q: Give its binding signal value. Item: "CCGATTAACATCAAATGTTCCCCTGATGTTAATCGGGTCTTGATTCGCTTGACGCTGCTG"
Ans: 7.62 z-score

Q: Entry under review: "CCGATTAACATCAAATACTCCCCTGATGTTAATCGGGTCTTGATTCGCTTGACGCTGCTG" . Reported binding signal?
Ans: 6.09 z-score

Q: Dear colleague, I am looking for the recorded binding signal of the following sequence: "CCGATTAACATCAAGGGGGGTAATGATGTTAATCGGGTCTTGATTCGCTTGACGCTGCTG"
Ans: 4.3 z-score

Q: Field request: binding signal | item: "CCGATTAACATCAGGAAACCCCCTGATGTTAATCGGGTCTTGATTCGCTTGACGCTGCTG"
Ans: 9.07 z-score

Q: Requested read-out: binding signal. Entry: "CCGATTAACATCAAGGGTGGGAATGATGTTAATCGGGTCTTGATTCGCTTGACGCTGCTG"
Ans: 1.42 z-score

Q: Item "CCGATTAACATCAATTGGGAAATTGATGTTAATCGGGTCTTGATTCGCTTGACGCTGCTG" has what recorded binding signal?
Ans: 3.48 z-score

Q: Entry under review: "CCGATTAACATCAGGGGAAGTAATGATGTTAATCGGGTCTTGATTCGCTTGACGCTGCTG" . Reported binding signal?
Ans: 7.78 z-score

Q: Need binding signal of "CCGATTAACATCAGGGGATTGGATGATGTTAATCGGGTCTTGATTCGCTTGACGCTGCTG" , thanks.
Ans: 6.52 z-score

Q: Which measured binding signal value corresponds to "CCGATTAACATCAATTTCCCAGGTGATGTTAATCGGGTCTTGATTCGCTTGACGCTGCTG" ?
Ans: 3.53 z-score

Q: Find the recorded binding signal belonging to "CCGATTAACATCACGCAAATCCCTGATGTTAATCGGGTCTTGATTCGCTTGACGCTGCTG" and report it.
Ans: 1.22 z-score

Q: Given the sequence "CCGATTAACATCAAGGGGGGGTGTGATGTTAATCGGGTCTTGATTCGCTTGACGCTGCTG" , what is its reported binding signal?
Ans: 3.53 z-score

Q: What value of measured binding signal is listed for "CCGATTAACATCAGGACTCCCCCTGATGTTAATCGGGTCTTGATTCGCTTGACGCTGCTG" ?
Ans: 6.45 z-score
